# Tested Target: VEGFR-2 (Homo sapiens, UniProt P35968)
# Construct: endogenous in cells; host or cells: HCT116, PaCa2, MCF7 (human cancer cell lines, ATCC origin)
# Sequence (P35968 20-1356): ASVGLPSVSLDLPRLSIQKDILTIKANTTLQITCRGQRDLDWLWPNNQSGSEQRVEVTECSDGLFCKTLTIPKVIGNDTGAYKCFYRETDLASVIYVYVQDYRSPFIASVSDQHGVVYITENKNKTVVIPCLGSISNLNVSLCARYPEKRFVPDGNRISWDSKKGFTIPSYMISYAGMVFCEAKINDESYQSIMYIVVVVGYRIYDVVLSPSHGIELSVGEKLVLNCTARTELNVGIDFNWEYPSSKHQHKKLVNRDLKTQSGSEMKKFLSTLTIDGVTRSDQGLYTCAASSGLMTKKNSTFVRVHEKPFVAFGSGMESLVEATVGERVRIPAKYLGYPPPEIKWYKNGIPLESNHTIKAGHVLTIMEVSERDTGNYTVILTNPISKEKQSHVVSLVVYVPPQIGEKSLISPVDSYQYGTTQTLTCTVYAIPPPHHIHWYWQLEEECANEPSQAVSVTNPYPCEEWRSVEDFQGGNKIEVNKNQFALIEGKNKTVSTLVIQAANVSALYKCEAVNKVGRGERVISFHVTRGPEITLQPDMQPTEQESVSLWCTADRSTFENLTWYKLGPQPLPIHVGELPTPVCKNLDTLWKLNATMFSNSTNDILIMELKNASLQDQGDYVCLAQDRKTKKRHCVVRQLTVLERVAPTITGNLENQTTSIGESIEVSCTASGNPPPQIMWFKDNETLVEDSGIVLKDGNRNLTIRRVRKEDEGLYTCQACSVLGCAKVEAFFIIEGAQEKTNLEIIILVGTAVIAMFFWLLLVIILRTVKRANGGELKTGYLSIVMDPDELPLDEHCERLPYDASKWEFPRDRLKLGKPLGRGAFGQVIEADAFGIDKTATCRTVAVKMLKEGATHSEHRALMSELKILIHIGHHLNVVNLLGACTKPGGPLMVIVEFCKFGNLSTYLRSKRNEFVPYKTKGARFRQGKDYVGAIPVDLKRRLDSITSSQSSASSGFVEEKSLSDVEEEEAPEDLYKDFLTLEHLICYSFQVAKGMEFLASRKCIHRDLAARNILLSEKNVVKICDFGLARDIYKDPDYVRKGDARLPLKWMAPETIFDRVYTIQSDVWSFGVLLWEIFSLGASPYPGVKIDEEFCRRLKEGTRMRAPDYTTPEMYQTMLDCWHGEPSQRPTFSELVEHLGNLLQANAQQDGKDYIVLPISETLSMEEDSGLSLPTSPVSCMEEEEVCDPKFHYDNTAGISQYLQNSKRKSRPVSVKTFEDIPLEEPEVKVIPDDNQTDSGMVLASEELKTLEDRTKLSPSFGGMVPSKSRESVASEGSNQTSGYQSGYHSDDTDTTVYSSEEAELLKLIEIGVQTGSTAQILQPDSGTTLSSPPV
# Assay Method Text: cell-based
# Assay type: cell-based
# Run Conditions: PaCa-2, PaCa2
A collection of molecules and their measured inhibition at 10 µM

Molecule: CCOP(=O)(OCC)N1C/C(=C\c2ccc(F)cc2)C(=O)C2(C1)C(c1ccc(F)cc1)CN(C)C21C(=O)Nc2ccc(Cl)cc21 (stereo not drawn) [Compound 17f]
Tested Target: VEGFR-2 (Homo sapiens, UniProt P35968)
inhibition at 10 µM: 91.6%

Molecule: CCOP(=O)(OCC)N1C/C(=C\c2ccccc2)C(=O)C2(C1)C(c1ccccc1)CN(C)C21C(=O)Nc2ccc(F)cc21 (stereo not drawn) [Compound 17b]
Tested Target: VEGFR-2 (Homo sapiens, UniProt P35968)
inhibition at 10 µM: 88.1%

Molecule: CCOP(=O)(OCC)N1C/C(=C\c2ccccc2)C(=O)C2(C1)C(c1ccccc1)CN(C)C21C(=O)Nc2ccc(Cl)cc21 (stereo not drawn) [Compound 17c]
Tested Target: VEGFR-2 (Homo sapiens, UniProt P35968)
inhibition at 10 µM: 91.3%

Molecule: CCOP(=O)(OCC)N1C/C(=C\c2ccc(Cl)cc2)C(=O)C2(C1)C(c1ccc(Cl)cc1)CN(C)C21C(=O)Nc2ccc(C)cc21 (stereo not drawn) [Compound 17k]
Tested Target: VEGFR-2 (Homo sapiens, UniProt P35968)
inhibition at 10 µM: 76.6%

Molecule: CCOP(=O)(OCC)N1C/C(=C\c2cccs2)C(=O)C2(C1)C(c1cccs1)CN(C)C21C(=O)Nc2ccc(Cl)cc21 (stereo not drawn) [Compound 17s]
Tested Target: VEGFR-2 (Homo sapiens, UniProt P35968)
inhibition at 10 µM: 91.9%

Molecule: CCOP(=O)(OCC)N1C/C(=C\c2ccc(Cl)cc2)C(=O)C2(C1)C(c1ccc(Cl)cc1)CN(C)C21C(=O)Nc2ccccc21 (stereo not drawn) [Compound 17h]
Tested Target: VEGFR-2 (Homo sapiens, UniProt P35968)
inhibition at 10 µM: 94.4%

----------
# Test system: TNF-α
# Assay Method Text: TNF-α inhibitory properties (ELISA), HCT116 cell lysate
# Assay type: cell-based, human
# Run Conditions: at 10 μM, control 95.74 ± 0.5

Compound: CCOP(=O)(OCC)N1C/C(=C\c2ccc(C)cc2)C(=O)C2(C1)C(c1ccc(C)cc1)CN(C)C21C(=O)Nc2ccc(Cl)cc21 (stereo not drawn) [Compound 17o]
TNF-α pg/mL (± SEM) HCT116, pg/mL: 86.34
//
Compound: CCOP(=O)(OCC)N1C/C(=C\c2ccccc2)C(=O)C2(C1)C(c1ccccc1)CN(C)C21C(=O)Nc2ccc(F)cc21 (stereo not drawn) [Compound 17b]
TNF-α pg/mL (± SEM) HCT116, pg/mL: 94.64
//
Compound: CCOP(=O)(OCC)N1C/C(=C\c2ccc(Cl)cc2)C(=O)C2(C1)C(c1ccc(Cl)cc1)CN(C)C21C(=O)Nc2ccc(F)cc21 (stereo not drawn) [Compound 17i]
TNF-α pg/mL (± SEM) HCT116, pg/mL: 28.56

----------
A collection of molecules and their measured inhibition at 10 µM
# Tested Target: VEGFR-2 (Homo sapiens, UniProt P35968)
# Construct: endogenous in cells; host or cells: HCT116, PaCa2, MCF7 (human cancer cell lines, ATCC origin)
# Assay Method Text: cell-based
# Type: cell-based
# Run Conditions: MCF7

Molecule: CCOP(=O)(OCC)N1C/C(=C\c2ccc(Cl)cc2)C(=O)C2(C1)C(c1ccc(Cl)cc1)CN(C)C21C(=O)Nc2ccc(F)cc21 (stereo not shown) [Compound 17i]
inhibition at 10 µM, %: 80.9
//
Molecule: CCOP(=O)(OCC)N1C/C(=C\c2cccs2)C(=O)C2(C1)C(c1cccs1)CN(C)C21C(=O)Nc2ccc(F)cc21 (stereo not shown) [Compound 17r]
inhibition at 10 µM, %: 67.4
//
Molecule: CCOP(=O)(OCC)N1C/C(=C\c2ccc(Cl)cc2)C(=O)C2(C1)C(c1ccc(Cl)cc1)CN(C)C21C(=O)Nc2ccc(C)cc21 (stereo not shown) [Compound 17k]
inhibition at 10 µM, %: 66.6
//
Molecule: CCOP(=O)(OCC)N1C/C(=C\c2ccc(Cl)cc2)C(=O)C2(C1)C(c1ccc(Cl)cc1)CN(C)C21C(=O)Nc2ccccc21 (stereo not shown) [Compound 17h]
inhibition at 10 µM, %: 79.6
//
Molecule: CCOP(=O)(OCC)N1C/C(=C\c2ccccc2)C(=O)C2(C1)C(c1ccccc1)CN(C)C21C(=O)Nc2ccc(C)cc21 (stereo not shown) [Compound 17d]
inhibition at 10 µM, %: 71.9
//
Molecule: CCOP(=O)(OCC)N1C/C(=C\c2ccc(OC)cc2)C(=O)C2(C1)C(c1ccc(OC)cc1)CN(C)C21C(=O)Nc2ccccc21 (stereo not shown) [Compound 17p]
inhibition at 10 µM, %: 81.3
//
Molecule: CCOP(=O)(OCC)N1C/C(=C\c2cccs2)C(=O)C2(C1)C(c1cccs1)CN(C)C21C(=O)Nc2ccccc21 (stereo not shown) [Compound 17q]
inhibition at 10 µM, %: 43.7
//
Molecule: CCOP(=O)(OCC)N1C/C(=C\c2ccc(C)cc2)C(=O)C2(C1)C(c1ccc(C)cc1)CN(C)C21C(=O)Nc2ccccc21 (stereo not shown) [Compound 17m]
inhibition at 10 µM, %: 83.5
//
Molecule: CCOP(=O)(OCC)N1C/C(=C\c2ccccc2)C(=O)C2(C1)C(c1ccccc1)CN(C)C21C(=O)Nc2ccc(Cl)cc21 (stereo not shown) [Compound 17c]
inhibition at 10 µM, %: 76.7
//
Molecule: CCOP(=O)(OCC)N1C/C(=C\c2ccccc2)C(=O)C2(C1)C(c1ccccc1)CN(C)C21C(=O)Nc2ccccc21 (stereo not shown) [Compound 17a]
inhibition at 10 µM, %: 80.1
//
Molecule: CCOP(=O)(OCC)N1C/C(=C\c2cccs2)C(=O)C2(C1)C(c1cccs1)CN(C)C21C(=O)Nc2ccc(Cl)cc21 (stereo not shown) [Compound 17s]
inhibition at 10 µM, %: 81.6
//
Molecule: CCOP(=O)(OCC)N1C/C(=C\c2ccccc2)C(=O)C2(C1)C(c1ccccc1)CN(C)C21C(=O)Nc2ccc(F)cc21 (stereo not shown) [Compound 17b]
inhibition at 10 µM, %: 70.2
//
Molecule: CCOP(=O)(OCC)N1C/C(=C\c2ccc(Cl)cc2)C(=O)C2(C1)C(c1ccc(Cl)cc1)CN(C)C21C(=O)Nc2ccc(Cl)cc21 (stereo not shown) [Compound 17j]
inhibition at 10 µM, %: 82.7

----------
A collection of compounds and their measured VEGFR-2 pg/mL ± SEM HCT116
# Tested Target: VEGFR-2 (Homo sapiens, UniProt P35968)
# Construct: endogenous in cells; host or cells: HCT116, PaCa2, MCF7 (human cancer cell lines, ATCC origin)
# Assay Method Text: cell-based
# Format: cell-based
# Run Conditions: at 10 μM, control 317.80 ± 3.5

Compound: CCOP(=O)(OCC)N1C/C(=C\c2cccs2)C(=O)C2(C1)C(c1cccs1)CN(C)C21C(=O)Nc2ccc(F)cc21 (centres unmarked) [Compound 17r]
VEGFR-2 pg/mL ± SEM HCT116, pg/mL: 67.34
--
Compound: CCOP(=O)(OCC)N1C/C(=C\c2ccccc2)C(=O)C2(C1)C(c1ccccc1)CN(C)C21C(=O)Nc2ccc(Cl)cc21 (centres unmarked) [Compound 17c]
VEGFR-2 pg/mL ± SEM HCT116, pg/mL: 44.50
--
Compound: CCOP(=O)(OCC)N1C/C(=C\c2ccc(F)cc2)C(=O)C2(C1)C(c1ccc(F)cc1)CN(C)C21C(=O)Nc2ccc(C)cc21 (centres unmarked) [Compound 17g]
VEGFR-2 pg/mL ± SEM HCT116, pg/mL: 98.40
--
Compound: CCOP(=O)(OCC)N1C/C(=C\c2ccccc2)C(=O)C2(C1)C(c1ccccc1)CN(C)C21C(=O)Nc2ccccc21 (centres unmarked) [Compound 17a]
VEGFR-2 pg/mL ± SEM HCT116, pg/mL: 38.20
--
Compound: CCOP(=O)(OCC)N1C/C(=C\c2ccc(F)cc2)C(=O)C2(C1)C(c1ccc(F)cc1)CN(C)C21C(=O)Nc2ccccc21 (centres unmarked) [Compound 17e]
VEGFR-2 pg/mL ± SEM HCT116, pg/mL: 107.50
--
Compound: CCOP(=O)(OCC)N1C/C(=C\c2ccc(Cl)cc2)C(=O)C2(C1)C(c1ccc(Cl)cc1)CN(C)C21C(=O)Nc2ccc(F)cc21 (centres unmarked) [Compound 17i]
VEGFR-2 pg/mL ± SEM HCT116, pg/mL: 81.40
--
Compound: CCOP(=O)(OCC)N1C/C(=C\c2ccc(C)cc2)C(=O)C2(C1)C(c1ccc(C)cc1)CN(C)C21C(=O)Nc2ccccc21 (centres unmarked) [Compound 17m]
VEGFR-2 pg/mL ± SEM HCT116, pg/mL: 44.50
--
Compound: CCOP(=O)(OCC)N1C/C(=C\c2ccc(Cl)cc2)C(=O)C2(C1)C(c1ccc(Cl)cc1)CN(C)C21C(=O)Nc2ccccc21 (centres unmarked) [Compound 17h]
VEGFR-2 pg/mL ± SEM HCT116, pg/mL: 51.74
--
Compound: CCOP(=O)(OCC)N1C/C(=C\c2ccc(C)cc2)C(=O)C2(C1)C(c1ccc(C)cc1)CN(C)C21C(=O)Nc2ccc(Cl)cc21 (centres unmarked) [Compound 17o]
VEGFR-2 pg/mL ± SEM HCT116, pg/mL: 48.40
--
Compound: CCOP(=O)(OCC)N1C/C(=C\c2cccs2)C(=O)C2(C1)C(c1cccs1)CN(C)C21C(=O)Nc2ccccc21 (centres unmarked) [Compound 17q]
VEGFR-2 pg/mL ± SEM HCT116, pg/mL: 132.30
--
Compound: CCOP(=O)(OCC)N1C/C(=C\c2cccs2)C(=O)C2(C1)C(c1cccs1)CN(C)C21C(=O)Nc2ccc(C)cc21 (centres unmarked) [Compound 17t]
VEGFR-2 pg/mL ± SEM HCT116, pg/mL: 124.70
--
Compound: CCOP(=O)(OCC)N1C/C(=C\c2ccc(Cl)cc2)C(=O)C2(C1)C(c1ccc(Cl)cc1)CN(C)C21C(=O)Nc2ccc(C)cc21 (centres unmarked) [Compound 17k]
VEGFR-2 pg/mL ± SEM HCT116, pg/mL: 67.80
--
Compound: CCOP(=O)(OCC)N1C/C(=C\c2ccc(Br)cc2)C(=O)C2(C1)C(c1ccc(Br)cc1)CN(C)C21C(=O)Nc2ccccc21 (centres unmarked) [Compound 17l]
VEGFR-2 pg/mL ± SEM HCT116, pg/mL: 84.20
--
Compound: CCOP(=O)(OCC)N1C/C(=C\c2cccs2)C(=O)C2(C1)C(c1cccs1)CN(C)C21C(=O)Nc2ccc(Cl)cc21 (centres unmarked) [Compound 17s]
VEGFR-2 pg/mL ± SEM HCT116, pg/mL: 53.80
--
Compound: CCOP(=O)(OCC)N1C/C(=C\c2ccc(OC)cc2)C(=O)C2(C1)C(c1ccc(OC)cc1)CN(C)C21C(=O)Nc2ccccc21 (centres unmarked) [Compound 17p]
VEGFR-2 pg/mL ± SEM HCT116, pg/mL: 31.80
--
Compound: CCOP(=O)(OCC)N1C/C(=C\c2ccc(C)cc2)C(=O)C2(C1)C(c1ccc(C)cc1)CN(C)C21C(=O)Nc2ccc(F)cc21 (centres unmarked) [Compound 17n]
VEGFR-2 pg/mL ± SEM HCT116, pg/mL: 115.30
--
Compound: CCOP(=O)(OCC)N1C/C(=C\c2ccccc2)C(=O)C2(C1)C(c1ccccc1)CN(C)C21C(=O)Nc2ccc(C)cc21 (centres unmarked) [Compound 17d]
VEGFR-2 pg/mL ± SEM HCT116, pg/mL: 87.40
